Catalogue of viability, T/C readings, one per entry.
# System: NCI-H1618 multicellular tumor spheroid viability
# PROTOCOL_TEXT: Anticancer human tumor NCI-H1618 cell line growth inhibition;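 note: spheroids exposed to agents for 7 days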
# CONDITION_CONTEXT: second compound 0.0003 µM; first compound 0.3 µM; stronger effect = lower value
Answer with a number only, understood to be in %.

Worked examples follow.
O=C(c1cc(Cc2n[nH]c(=O)c3ccccc23)ccc1F)N1CCN(C(=O)C2CC2)CC1 + COc1cc2c(cc1O)CCNC21CSC2c3c(OC(C)=O)c(C)c4c(c3C(COC1=O)N1C(O)C3Cc5cc(C)c(OC)c(O)c5C(C21)N3C)OCO4 :: 2.62
CNCc1ccc(-c2cc(-c3nc(-c4ccc(S(=O)(=O)C(C)C)cc4)cnc3N)on2)cc1 + COc1cc2c(cc1O)CCNC21CSC2c3c(OC(C)=O)c(C)c4c(c3C(COC1=O)N1C(O)C3Cc5cc(C)c(OC)c(O)c5C(C21)N3C)OCO4 :: 12.6
Cc1sc2c(c1C)C(c1ccc(Cl)cc1)=NC(CC(=O)Nc1ccc(O)cc1)c1nnc(C)n1-2 (centres undefined) + COc1cc2c(cc1O)CCNC21CSC2c3c(OC(C)=O)c(C)c4c(c3C(COC1=O)N1C(O)C3Cc5cc(C)c(OC)c(O)c5C(C21)N3C)OCO4 :: 11.7

Here's the next entry for you.
Reported NCI-H1618 multicellular tumor spheroid viability viability, T/C for item Cn1ncnc1[C@H]1c2n[nH]c(=O)c3cc(F)cc(c23)N[C@@H]1c1ccc(F)cc1 + COc1cc2c(cc1O)CCNC21CSC2c3c(OC(C)=O)c(C)c4c(c3C(COC1=O)N1C(O)C3Cc5cc(C)c(OC)c(O)c5C(C21)N3C)OCO4 was 2.88

----------
# System: NCI-H1618 multicellular tumor spheroid viability
# PROTOCOL_TEXT: Anticancer human tumor NCI-H1618 cell line growth inhibition;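 note: spheroids exposed to agents for 7 days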
# CONDITION_CONTEXT: second compound 0.000949 µM; first compound 0.1 µM; stronger effect = lower value
Reported viability, T/C values for the following compounds.

The following compounds have reported results that may help.
COc1cc(C)[nH]c(=O)c1CN1CCc2c(Cl)cc(C(OC)C3COC3)c(Cl)c2C1=O (stereo unspecified) + COc1cc2c(cc1O)CCNC21CSC2c3c(OC(C)=O)c(C)c4c(c3C(COC1=O)N1C(O)C3Cc5cc(C)c(OC)c(O)c5C(C21)N3C)OCO4 :: 2.33%
Cc1cc(C)c(CNC(=O)c2cc(-c3ccc(CN4CCOCC4)cc3)cc3c2cnn3C2CCCC2)c(=O)[nH]1 + COc1cc2c(cc1O)CCNC21CSC2c3c(OC(C)=O)c(C)c4c(c3C(COC1=O)N1C(O)C3Cc5cc(C)c(OC)c(O)c5C(C21)N3C)OCO4 :: 7.05%
CC(C)n1c(=O)n(C)c2cnc3cc(F)c(-c4ccc(OCCCN5CCCCC5)nc4)cc3c21 + COc1cc2c(cc1O)CCNC21CSC2c3c(OC(C)=O)c(C)c4c(c3C(COC1=O)N1C(O)C3Cc5cc(C)c(OC)c(O)c5C(C21)N3C)OCO4 :: 5.23%

Record summary for CC1COCCN1c1cc(-c2ccnn2C)c2ccnc(-c3ccn[nH]3)c2n1 (stereo unspecified) + COc1cc2c(cc1O)CCNC21CSC2c3c(OC(C)=O)c(C)c4c(c3C(COC1=O)N1C(O)C3Cc5cc(C)c(OC)c(O)c5C(C21)N3C)OCO4 : reported viability, T/C = 2.16%

viability, T/C recorded for this compound, COc1ccc([C@@H](O)c2cc(-c3ncnc4cc(N5CCOCC5)ccc34)c(F)cc2Cl)nn1 + COc1cc2c(cc1O)CCNC21CSC2c3c(OC(C)=O)c(C)c4c(c3C(COC1=O)N1C(O)C3Cc5cc(C)c(OC)c(O)c5C(C21)N3C)OCO4 , is 4.36%

Value of measured viability, T/C for the entry [2H]c1nc(C)nc([2H])c1-c1cc(NC[C@@H](C)c2cccc3c(C(=O)NC)ccnc23)ncn1 + COc1cc2c(cc1O)CCNC21CSC2c3c(OC(C)=O)c(C)c4c(c3C(COC1=O)N1C(O)C3Cc5cc(C)c(OC)c(O)c5C(C21)N3C)OCO4 : 3.49%

----------
# Tested on: NCI-H1618 multicellular tumor spheroid viability
# PROTOCOL_TEXT: Anticancer human tumor NCI-H1618 cell line growth inhibition;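 note: spheroids exposed to agents for 7 days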
# CONDITION_CONTEXT: second compound 94.9 pM; first compound 0.0949 µM; stronger effect = lower value
Known viability, T/C of a selection of molecules
Kindly provide the numeric value in % only, without the unit symbol.

Worked examples, 3 molecules total:
Cc1sc2c(c1C)C(c1ccc(Cl)cc1)=NC(CC(=O)Nc1ccc(O)cc1)c1nnc(C)n1-2 (centres undefined) + COc1cc2c(cc1O)CCNC21CSC2c3c(OC(C)=O)c(C)c4c(c3C(COC1=O)N1C(O)C3Cc5cc(C)c(OC)c(O)c5C(C21)N3C)OCO4 :: 63.9
Cn1ncnc1[C@H]1c2n[nH]c(=O)c3cc(F)cc(c23)N[C@@H]1c1ccc(F)cc1 + COc1cc2c(cc1O)CCNC21CSC2c3c(OC(C)=O)c(C)c4c(c3C(COC1=O)N1C(O)C3Cc5cc(C)c(OC)c(O)c5C(C21)N3C)OCO4 :: 3.24
CNCc1ccc(-c2cc(-c3nc(-c4ccc(S(=O)(=O)C(C)C)cc4)cnc3N)on2)cc1 + COc1cc2c(cc1O)CCNC21CSC2c3c(OC(C)=O)c(C)c4c(c3C(COC1=O)N1C(O)C3Cc5cc(C)c(OC)c(O)c5C(C21)N3C)OCO4 :: 59.5

Lookup result for O=C(c1cc(Cc2n[nH]c(=O)c3ccccc23)ccc1F)N1CCN(C(=O)C2CC2)CC1 + COc1cc2c(cc1O)CCNC21CSC2c3c(OC(C)=O)c(C)c4c(c3C(COC1=O)N1C(O)C3Cc5cc(C)c(OC)c(O)c5C(C21)N3C)OCO4 ; measured viability, T/C: 85.7

----------
# Test system: NCI-H1618 multicellular tumor spheroid viability
# PROTOCOL_TEXT: Anticancer human tumor NCI-H1618 cell line growth inhibition;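 note: spheroids exposed to agents for 7 days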
# CONDITION_CONTEXT: second compound 0.0003 µM; first compound 0.949 µM; stronger effect = lower value
RECORDED_ENDPOINT: viability, T/C (%)
Report only the number, with the unit % understood.

Here's what some known entries look like.
CNCc1ccc(-c2cc(-c3nc(-c4ccc(S(=O)(=O)C(C)C)cc4)cnc3N)on2)cc1 + COc1cc2c(cc1O)CCNC21CSC2c3c(OC(C)=O)c(C)c4c(c3C(COC1=O)N1C(O)C3Cc5cc(C)c(OC)c(O)c5C(C21)N3C)OCO4 :: 2.49
O=C(c1cc(Cc2n[nH]c(=O)c3ccccc23)ccc1F)N1CCN(C(=O)C2CC2)CC1 + COc1cc2c(cc1O)CCNC21CSC2c3c(OC(C)=O)c(C)c4c(c3C(COC1=O)N1C(O)C3Cc5cc(C)c(OC)c(O)c5C(C21)N3C)OCO4 :: 33.6
Cn1ncnc1[C@H]1c2n[nH]c(=O)c3cc(F)cc(c23)N[C@@H]1c1ccc(F)cc1 + COc1cc2c(cc1O)CCNC21CSC2c3c(OC(C)=O)c(C)c4c(c3C(COC1=O)N1C(O)C3Cc5cc(C)c(OC)c(O)c5C(C21)N3C)OCO4 :: 3.67

In the following, a different compound is considered.
Looking up Cc1sc2c(c1C)C(c1ccc(Cl)cc1)=NC(CC(=O)Nc1ccc(O)cc1)c1nnc(C)n1-2 (centres undefined) + COc1cc2c(cc1O)CCNC21CSC2c3c(OC(C)=O)c(C)c4c(c3C(COC1=O)N1C(O)C3Cc5cc(C)c(OC)c(O)c5C(C21)N3C)OCO4 , I see its viability, T/C listed as 0.74

----------
# Test system: NCI-H1618 multicellular tumor spheroid viability
# PROTOCOL_TEXT: Anticancer human tumor NCI-H1618 cell line growth inhibition;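 note: spheroids exposed to agents for 7 days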
# CONDITION_CONTEXT: curve of first compound; second compound 0.000949 µM
Entries annotated with measured IC50

Known results for compounds:
CNCc1ccc(-c2cc(-c3nc(-c4ccc(S(=O)(=O)C(C)C)cc4)cnc3N)on2)cc1 + COc1cc2c(cc1O)CCNC21CSC2c3c(OC(C)=O)c(C)c4c(c3C(COC1=O)N1C(O)C3Cc5cc(C)c(OC)c(O)c5C(C21)N3C)OCO4 :: < 9.49 nM
Cc1sc2c(c1C)C(c1ccc(Cl)cc1)=NC(CC(=O)Nc1ccc(O)cc1)c1nnc(C)n1-2 (centres undefined) + COc1cc2c(cc1O)CCNC21CSC2c3c(OC(C)=O)c(C)c4c(c3C(COC1=O)N1C(O)C3Cc5cc(C)c(OC)c(O)c5C(C21)N3C)OCO4 :: < 9.49 nM
Cc1cc(C)c(CNC(=O)c2cc(-c3ccc(CN4CCOCC4)cc3)cc3c2cnn3C2CCCC2)c(=O)[nH]1 + COc1cc2c(cc1O)CCNC21CSC2c3c(OC(C)=O)c(C)c4c(c3C(COC1=O)N1C(O)C3Cc5cc(C)c(OC)c(O)c5C(C21)N3C)OCO4 :: < 31.6 nM

Quick note, IC50 for Cn1ncnc1[C@H]1c2n[nH]c(=O)c3cc(F)cc(c23)N[C@@H]1c1ccc(F)cc1 + COc1cc2c(cc1O)CCNC21CSC2c3c(OC(C)=O)c(C)c4c(c3C(COC1=O)N1C(O)C3Cc5cc(C)c(OC)c(O)c5C(C21)N3C)OCO4 landed at < 9.49 nM
